Origin of the recorded values: the supplement of paper PMC10127200

- System: HEPG2
- ASSAY TEXT: Euclidean distance of Cell Painting phenotypic profile (signed KS, 77 features) to DMSO centroid (dimensionless distance); higher = stronger phenotypic change vs DMSO (phenoactivity)
- CONDITION LABEL: 48 h; 5 or 10 uM (library dependent)
Where a name gives a salt, the structure may show the parent alone.
Values of Euclidean distance greater than or equal to 0.9 map to t; values below map to f.

Exercise: Reported Euclidean distance at or above 0.9? "O=C(Oc1ccc([N+](=O)[O-])cc1)N1CCC(C(O)(c2ccc3c(c2)OCO3)c2ccc3c(c2)OCO3)CC1"
Key: t

Exercise: Reported Euclidean distance at or above 0.9? CCN(CC)CCOC(=O)C(O)(c1ccccc1)c1ccccc1 [Benactyzine hydrochloride]
Key: f

Exercise: Reported Euclidean distance at or above 0.9? "CCN(CC)C(=O)c1ccc(C2=CC3(CCNCC3)Oc3cccc(O)c32)cc1"
Key: t

Exercise: Reported Euclidean distance at or above 0.9? CCCCCCCCC(=O)NCc1ccc(O)c(OC)c1 [Nonivamide]
Key: f

Exercise: Reported Euclidean distance at or above 0.9? "CCc1c(C(=O)C(N)=O)c2c(OCC(=O)O)cccc2n1Cc1ccccc1"
Key: f

Exercise: Reported Euclidean distance at or above 0.9? "C/C=C(\C)C(=O)N[C@@H](c1ccccc1)[C@@H](O)C(=O)O[C@H]1C[C@@]2(O)[C@@H](OC(=O)c3ccccc3)[C@@H]3[C@]4(OC(C)=O)CO[C@@H]4C[C@H](O)[C@@]3(C)C(=O)[C@H](OC(C)=O)C(=C1C)C2(C)C"
Key: t

Exercise: Reported Euclidean distance at or above 0.9? NC[C@H](CC(=O)O)c1ccc(Cl)cc1 [(R)-baclofen]
Key: f

Exercise: Reported Euclidean distance at or above 0.9? "COc1ccc2c3c([nH]c2c1)C(C)=NCC3"
Key: f

====

- Test system: A549
- ASSAY TEXT: Euclidean distance of Cell Painting phenotypic profile (signed KS, 77 features) to DMSO centroid (dimensionless distance); higher = stronger phenotypic change vs DMSO (phenoactivity)
- CONDITION LABEL: 48 h; 5 or 10 uM (library dependent)
Where a name gives a salt, the structure may show the parent alone.
Values of Euclidean distance greater than or equal to 1 map to Criterion met; values below map to Criterion not met.

Exercise: Reported Euclidean distance at or above 1? CC(C)NCC(O)c1ccccc1Cl (stereo not given) [Clorprenaline HCl]
Key: Criterion met

Exercise: Reported Euclidean distance at or above 1? Cc1ccc(/N=C/N(C)/C=N/c2ccc(C)cc2C)c(C)c1 [Amitraz]
Key: Criterion not met

Exercise: Reported Euclidean distance at or above 1? C=CC[C@]1(O)CC[C@H]2[C@@H]3CCC4=CC(=O)CCC4=C3C=C[C@@]21C [Altrenogest]
Key: Criterion met

Exercise: Reported Euclidean distance at or above 1? Cc1cccc(C)c1NC(=O)CN1CCCC1=O [Nefiracetam]
Key: Criterion not met

Exercise: Reported Euclidean distance at or above 1? O=P1(N(CCCl)CCCl)NCCCO1 (stereo not given) [Cyclophosphamide Monohydrate]
Key: Criterion not met

Exercise: Reported Euclidean distance at or above 1? NCCCNCCSP(=O)(O)O [Amifostine]
Key: Criterion met

Exercise: Reported Euclidean distance at or above 1? CN1[C@@H]2CC[C@H]1C[C@@H](OC(=O)C(CO)c1ccccc1)C2 (stereo not given in full) [Atropine sulfate monohydrate]
Key: Criterion not met

Exercise: Reported Euclidean distance at or above 1? CC(C)[N+](C)(CCC(C(N)=O)(c1ccccc1)c1ccccc1)C(C)C [Isopropamide Iodide]
Key: Criterion not met

Exercise: Reported Euclidean distance at or above 1? Oc1cccc2cccnc12 [8-Hydroxyquinoline]
Key: Criterion met

Exercise: Reported Euclidean distance at or above 1? c1ccc2c(c1)Nc1ccccc1S2 [Phenothiazine]
Key: Criterion not met

Exercise: Reported Euclidean distance at or above 1? "CN1CCN(c2nc3ccccc3nc2Cl)CC1"
Key: Criterion met

Exercise: Reported Euclidean distance at or above 1? "Cc1cc(SCc2sc(-c3ccc(C(F)(F)F)c(F)c3)nc2C)ccc1OCC(=O)O"
Key: Criterion met

Exercise: Reported Euclidean distance at or above 1? "CC(C)(C)c1cc(C=C(C#N)C#N)cc(Br)c1O"
Key: Criterion met

Exercise: Reported Euclidean distance at or above 1? Oc1cc(Cl)ccc1Oc1ccc(Cl)cc1Cl [Triclosan]
Key: Criterion not met

Exercise: Reported Euclidean distance at or above 1? "O=C(CBr)N1CC([N+](=O)[O-])([N+](=O)[O-])C1"
Key: Criterion met

Exercise: Reported Euclidean distance at or above 1? CC(C)N(CCNC(=O)CN1CCCC1=O)C(C)C [Pramiracetam]
Key: Criterion met

Exercise: Reported Euclidean distance at or above 1? C=C(C)[C@@H]1[C@H]2OC(=O)[C@@H]1[C@]1(O)C[C@H]3O[C@]34C(=O)O[C@H]2[C@]14C [Picrotoxinin]
Key: Criterion met

Exercise: Reported Euclidean distance at or above 1? C=C(C)[C@H]1Cc2c(ccc3c2O[C@@H]2COc4cc(OC)c(OC)cc4[C@@H]2C3=O)O1 [Rotenone (Barbasco)]
Key: Criterion met

Exercise: Reported Euclidean distance at or above 1? N=C(N)NN [Aminoguanidine hydrochloride]
Key: Criterion met
